Value source: patent US20230192608A1

PROCEDURE SUMMARY: Water solubility test at 25° C. per 1 gram of compound (European Pharmacopoeia 10.0 / Polish Pharmacopoeia XII)
RECORDED CONDITIONS: European Pharmacopoeia 10.0 / Polish Pharmacopoeia XII
MEASURE: Matching term (solubility in water, pharmacopoeial terminology)

COMPOUND | REPORTED VALUE
C[C@@H](C(=O)NCc1ccccc1)N1C(=O)CCC1=O [(2S)-1, reference compound] | Slightly soluble
CC(C(=O)NCc1ccccc1)N1CCCC1=O [Compound (2R,S)-3] | Soluble
C[C@@H](C(=O)NCc1ccccc1)N1CCCC1=O | Soluble
C[C@H](C(=O)NCc1ccccc1)N1C(=O)CCC1=O [(2R)-1, reference compound] | Slightly soluble
C[C@H](C(=O)NCc1ccccc1F)N1C(=O)CCC1=O [(2R)-2, reference compound] | Slightly soluble
C[C@@H](C(=O)NCc1ccccc1F)N1CCCC1=O | Soluble

stdin: Find the measured Matching term (solubility in water, pharmacopoeial terminology) of "C[C@H](C(=O)NCc1ccccc1F)N1CCCC1=O" and report it.
stdout: Soluble

stdin: Input CC(C(=O)NCc1ccccc1F)N1CCCC1=O [(2R,S)-4] , output reported Matching term (solubility in water, pharmacopoeial terminology).
stdout: Soluble

stdin: Entry CC(C(=O)NCc1ccccc1F)N1C(=O)CCC1=O (racemic) [(2R,S)-2, reference compound] needs its Matching term (solubility in water, pharmacopoeial terminology) filled in; supply it.
stdout: Slightly soluble

###

PROCEDURE SUMMARY: Water solubility test at 25° C. per 1 gram of compound (European Pharmacopoeia 10.0 / Polish Pharmacopoeia XII)
RECORDED CONDITIONS: 1 g of compound, maximum volume of water used 100 mL
Marks after values point to notes of the source that are not given here.
MEASURE: The volume of water required for dissolution of 1 g of the substance at 25° C.

Known The volume of water required for dissolution of 1 g of the substance at 25° C. results, listed for orientation:
COMPOUND | REPORTED VALUE
C[C@H](C(=O)NCc1ccccc1F)N1CCCC1=O | 30 mL
CC(C(=O)NCc1ccccc1F)N1C(=O)CCC1=O (racemic) [(2R,S)-2, reference compound] | >100^c mL
C[C@H](C(=O)NCc1ccccc1F)N1C(=O)CCC1=O [(2R)-2, reference compound] | >100^c mL
C[C@@H](C(=O)NCc1ccccc1)N1CCCC1=O | 25 mL
C[C@@H](C(=O)NCc1ccccc1F)N1C(=O)CCC1=O [(2S)-2, reference compound] | >100^c mL
C[C@@H](C(=O)NCc1ccccc1F)N1CCCC1=O | 30 mL

stdin: Name the recorded The volume of water required for dissolution of 1 g of the substance at 25° C. of the compound listed here: CC(C(=O)NCc1ccccc1F)N1CCCC1=O (stereo not drawn)
stdout: 30 mL

stdin: Tell me measured The volume of water required for dissolution of 1 g of the substance at 25° C. for C[C@H](C(=O)NCc1ccccc1)N1C(=O)CCC1=O [(2R)-1, reference compound] please.
stdout: >100^c mL

stdin: Give the measured The volume of water required for dissolution of 1 g of the substance at 25° C. for CC(C(=O)NCc1ccccc1)N1C(=O)CCC1=O (racemic) [(2R,S)-1, reference compound]
stdout: >100^c mL

###

PROCEDURE SUMMARY: Water solubility test at 25° C. per 1 gram of compound (European Pharmacopoeia 10.0 / Polish Pharmacopoeia XII)
RECORDED CONDITIONS: European Pharmacopoeia 10.0 / Polish Pharmacopoeia XII
MEASURE: Matching term (solubility in water, pharmacopoeial terminology)

MOLECULE | REPORTED VALUE
CC(C(=O)NCc1ccccc1F)N1CCCC1=O (stereo not shown) [Compound 4] | water-soluble substances
CC(C(=O)NCc1ccccc1)N1C(=O)CCC1=O (racemic) [(2R,S)-1, reference compound] | Slightly soluble
C[C@@H](C(=O)NCc1ccccc1F)N1C(=O)CCC1=O [(2S)-2, reference compound] | Slightly soluble
CC(C(=O)NCc1ccccc1)N1CCCC1=O (stereo not shown) [Compound 3] | water-soluble substances
